# target or system: P2X purinoceptor 7 (Rattus norvegicus, UniProt Q64663)
# Sequence (Q64663 whole entry): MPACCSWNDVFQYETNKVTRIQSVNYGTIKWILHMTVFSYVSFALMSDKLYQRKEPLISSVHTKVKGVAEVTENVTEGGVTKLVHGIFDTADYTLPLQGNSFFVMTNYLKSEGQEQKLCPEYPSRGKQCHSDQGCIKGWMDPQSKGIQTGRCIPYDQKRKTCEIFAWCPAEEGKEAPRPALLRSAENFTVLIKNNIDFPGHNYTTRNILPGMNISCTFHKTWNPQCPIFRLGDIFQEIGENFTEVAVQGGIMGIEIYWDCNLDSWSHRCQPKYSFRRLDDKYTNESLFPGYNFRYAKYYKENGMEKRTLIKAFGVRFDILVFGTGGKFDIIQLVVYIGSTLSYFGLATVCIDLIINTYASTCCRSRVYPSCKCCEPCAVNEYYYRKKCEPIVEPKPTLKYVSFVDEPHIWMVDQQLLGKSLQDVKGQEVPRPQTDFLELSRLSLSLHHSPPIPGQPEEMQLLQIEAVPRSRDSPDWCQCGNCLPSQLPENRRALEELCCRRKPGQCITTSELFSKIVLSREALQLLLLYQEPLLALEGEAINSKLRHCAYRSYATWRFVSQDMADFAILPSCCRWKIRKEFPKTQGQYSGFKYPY
# run description: Antagonist activity at rat P2X7 receptor expressed in 1321N1 cells assessed as inhibition of Bz-ATP-induced Ca2+ flux after 30 mins by FLIPR assay
pIC50: −log10 of the molar value.
measurement type: pIC50

input: Look up pIC50 of C[C@H]1Cn2c(nnc2-c2cnccn2)C(=O)N1Cc1ccccc1 and report it.
output: < 5.00

All figures here come from BindingDB's records for doi:10.1016/j.bmcl.2015.12.052.
